Measured Potency of individual entries
# study_system: 4'-phosphopantetheinyl transferase ffp (Bacillus subtilis) (UniProt Q9F4F7)
# protocol_description: qHTS Assay for Inhibitors of Bacillus subtilis Sfp phosphopantetheinyl transferase (PPTase);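 further: the enzyme is Sfp with the accession as filed and its product quenches rhodamine fluorescence; potency means the concentration at half of the fitted maximal effect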
# stated_conditions: Biochemical Sfp PPTase activity
# Source text: Assay Submitter: Michael Burkart, University of California, San Diego Screening Center PI: Austin, C.P. Screening Center: NIH Chemical Genomics Center [NCGC] […] In search of small molecule Sfp-PPTase inhibitors, a fluorescence quenching assay was developed for detection of Bacillus subtilis Sfp-PPTase enzymatic activity in a miniaturized high-throughput format. […]
In all, about 310,000 compounds went through this assay and about 11,000 (3.5%) were called active. Roughly 4% stayed inconclusive and do not appear here. The sample holds actives, similar compounds and a random draw of the others, so the mix is not that of the screen.

Sample answers from the record:
compound	Potency
O=C(NC(Cc1c[nH]c2ccccc12)C(=O)O)/C(=C/c1ccco1)NC(=O)c1ccccc1 (stereo unspecified)	44.7 µM (active)
Cc1ccc(-n2nc(-c3ccco3)cc2C(=O)NCc2cccnc2)cc1	10 µM (active)

Please give the documented Potency of "Cc1cccc(NC(=O)/C(=C\c2ccco2)NC(=O)c2ccccc2)c1" 50.1 µM (active)

Tell me its Potency given "C=CCn1c(=S)[nH]c2scc(-c3ccco3)c2c1=O" as the entry. 20 µM (active)

Respond only with Potency recorded for "Nc1nnnn1CC(=O)N/N=C/c1ccc(-c2cccc(Cl)c2)o1" 25.1 µM (active)

Answer with the recorded Potency of "C=CCn1c(SCc2csc(C)n2)nc2scc(-c3ccc(C)o3)c2c1=O" only. 11.2 µM (active)

Return reported Potency. Input compound: "COc1ccc(N2CCN(C(=S)Nc3ccc(S(N)(=O)=O)cc3)CC2)cc1" 11.2 µM (active)

Please list Potency recorded for the compound CSc1nc(C)cc(SC(C(C)=O)C(=O)Nc2ccccc2)n1 (stereo unspecified) 50.1 µM (active)

Dear colleague, please send me the reported Potency for "O=C(Nc1ccccc1)/C(=C\c1ccco1)NC(=O)c1ccco1" when you can. 44.7 µM (active)

In one line, give reported Potency of the entry "COc1ccc2c(c1)CC[C@@H]1[C@@H]2CC[C@]2(C)C(=O)CC[C@@H]12" . 50.1 µM (active)

Find the measured Potency of "O=C(O)[C@@H](S)[C@H](S)C(=O)O" and report it. 1.12 µM (active)

From: PubChem BioAssay AID1490
